assay: Partition coefficient (logP) (HPLC); assay type: physicochemical; details: octanol/water
Mark yes only when logP stays strictly below 4. Values equal to the cut-off are no.

Use the examples below as a reference point.
## Input Please check: logP for CCCC/N=c1\ccn(CCCc2ccccc2)c2cc(Cl)ccc12 , strictly under 4 or not?
## Output yes

## Input Please check: logP for CCCCCCOc1cc[n+](Cc2ccccc2)c2cc(Cl)ccc12 , strictly under 4 or not?
## Output yes

## Input Please check: logP for CCCCCCNc1cc[n+](-c2ccccc2)c2c(-c3ccccc3)cc(OC)cc12 , strictly under 4 or not?
## Output yes

Continuing:
## Input Please check: logP for CCCCCC/N=c1\ccn(Cc2ccc(Cl)c(Cl)c2)c2cc(Cl)ccc12 , strictly under 4 or not?
## Output no
